Test system: 454973-116-R2-J3-PDC spheroids, percent test/control viability;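 further: spheroids exposed to compounds for 7 days before readout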
Assay: Anticancer human tumor 454973-116-R2-J3-PDC patient-derived pancreatic carcinoma cell line growth inhibition [CLK]
Details: second compound 0.1 µM; first compound 0.0316 µM; active compounds read low; spheroids with HUVEC and MSC

{"compound": "CCN1CCN(Cc2ccc(Nc3ncc(F)c(-c4cc(F)c5nc(C)n(C(C)C)c5c4)n3)nc2)CC1 + CN1CCN(c2cc(C(=O)Nc3cc4cc(-c5cnn(C)c5)ccc4cn3)ccn2)CC1", "units": "%", "viability, T/C": 70.6}
{"compound": "C#Cc1c(F)ccc2cc(O)cc(-c3ncc4c(N5CC6CCC(C5)N6)nc(OCC56CCCN5CC(F)C6)nc4c3F)c12 (stereo not given) + CN1CCN(c2cc(C(=O)Nc3cc4cc(-c5cnn(C)c5)ccc4cn3)ccn2)CC1", "units": "%", "viability, T/C": 42}
{"compound": "COc1cccc2c1C(=O)c1c(O)c3c(c(O)c1C2=O)CC(O)(C(=O)CO)CC3OC1CC(N)C(O)C(C)O1 (stereo not given) + CNC(=O)c1ccc(Nc2nc(OC3CCCC3)c3c(-c4ccc5nc(C)oc5c4)c[nH]c3n2)c(OC)c1", "units": "%", "viability, T/C": 46.4}
{"compound": "CC1COCCN1c1cc(C2(S(C)(=N)=O)CC2)nc(-c2ccnc3[nH]ccc23)n1 (stereo not given) + CNC(=O)c1ccc(Nc2nc(OC3CCCC3)c3c(-c4ccc5nc(C)oc5c4)c[nH]c3n2)c(OC)c1", "units": "%", "viability, T/C": 103}
{"compound": "CCc1c2c(nc3ccc(O)cc13)-c1cc3c(c(=O)n1C2)COC(=O)[C@]3(O)CC + CN1CCN(c2cc(C(=O)Nc3cc4cc(-c5cnn(C)c5)ccc4cn3)ccn2)CC1", "units": "%", "viability, T/C": 9.73}
{"compound": "CC(=O)O[C@H]1C(=O)[C@@]2(C)[C@H]([C@H](OC(=O)c3ccccc3)[C@]3(O)C[C@H](OC(=O)[C@H](O)[C@@H](NC(=O)c4ccccc4)c4ccccc4)C(C)=C1C3(C)C)[C@]1(OC(C)=O)CO[C@@H]1C[C@@H]2O + CNC(=O)c1ccc(Nc2nc(OC3CCCC3)c3c(-c4ccc5nc(C)oc5c4)c[nH]c3n2)c(OC)c1", "units": "%", "viability, T/C": 10.1}
{"compound": "COc1cccc2c1C(=O)c1c(O)c3c(c(O)c1C2=O)CC(O)(C(=O)CO)CC3OC1CC(N)C(O)C(C)O1 (stereo not given) + CN1CCN(c2cc(C(=O)Nc3cc4cc(-c5cnn(C)c5)ccc4cn3)ccn2)CC1", "units": "%", "viability, T/C": 29.2}
{"compound": "COc1c(OCCCN2CCOCC2)ccc2c3n(c(=NC(=O)c4cnc(N)nc4)nc12)CCN3 + CN1CCN(c2cc(C(=O)Nc3cc4cc(-c5cnn(C)c5)ccc4cn3)ccn2)CC1", "units": "%", "viability, T/C": 43.4}
{"compound": "COC1C=CCC(C)C(C)S(=O)(=O)NC(=O)c2ccc3c(c2)N(CC2CCC21)CC1(CCCc2cc(Cl)ccc21)CO3 (stereo not given) + CNC(=O)c1ccc(Nc2nc(OC3CCCC3)c3c(-c4ccc5nc(C)oc5c4)c[nH]c3n2)c(OC)c1", "units": "%", "viability, T/C": 91.8}
{"compound": "CCc1c2c(nc3ccc(O)cc13)-c1cc3c(c(=O)n1C2)COC(=O)[C@]3(O)CC + CNC(=O)c1ccc(Nc2nc(OC3CCCC3)c3c(-c4ccc5nc(C)oc5c4)c[nH]c3n2)c(OC)c1", "units": "%", "viability, T/C": 13.6}
